Value source: the supplement of paper PMC10567573

B1: FAM46D (parent)
chain: LELKFVSSLRRQFEFSVDSFQIVL

- Variants of: B1
- Protocol Text: protein stability index of a GFP-peptide fusion (GPS, HEK-293T) (PSI 1-6); higher = more stable;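 also: lentivirally expressed fusions sorted by FACS into six bins by GFP to DsRed ratio, PSI derived from sequencing read proportions per bin multiplied by bin number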
- Assay Setup: c terminus: a fixed tail appended
Measured Parameter: protein stability index
Answers are plain numbers.

Guide cases for protein stability index, answers given:
[[record]]
sequence_content = "LELKFVSSPRRQFEFSVDSFQIVL"
measured_parameter = "protein stability index"
measured_result = 3.04

[[record]]
sequence_content = "LELKFVSSLRRQFEFSVDSGQIVL"
measured_parameter = "protein stability index"
measured_result = 2.96

[[record]]
sequence_content = "LELKFVSSLARQFEFSVDSFQIVL"
measured_parameter = "protein stability index"
measured_result = 3

[[record]]
sequence_content = "LELKFVSSLRRQFEFSVDSFQIAL"
measured_parameter = "protein stability index"
measured_result = 3.08

[[record]]
sequence_content = "LELKFVSSLRRQFEFIVDSFQIVL"
measured_parameter = "protein stability index"
measured_result = 2.93


Now consider the entry below.
For reference, reported protein stability index for LELKFVSSLRFQFEFSVDSFQIVL stands at 3.08
